Assay: NCI Yeast Anticancer Drug Screen. Data for the sgs1 mgt1 strain (AID 161);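 further: 0% = growth of cultures given vehicle only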
Conditions: S. cerevisiae sgs1 mgt1 strain, at 50.0 µM, hits give high values
About 79,000 compounds went through this panel and 15% of them were active in at least one assay; those are over-represented in the sample as a whole.
quantity: growth inhibition (%)
Just the number in %, nothing appended.

# lookup: growth inhibition of O=C1CSC(c2c(F)cccc2Cl)N1c1nncs1 (stereo unspecified)
31.4

Sample CS(=O)(=O)C(CCC(=O)C(c1ccccc1)c1ccccc1)C(=O)c1ccccc1 (stereo unspecified) — what was its growth inhibition?
-20.5

Return reported growth inhibition; argument: `Brc1ccc(C=C2c3ccccc3-c3ccccc32)cc1`
-16.4

GET /values?readout=growth inhibition&item= `c1ccc2c(c1)ccc1ccc3ocnc3c12`
-3.15

Bench note: what growth inhibition did `NC(=O)c1ccc(NCC2=CC(=O)C=CC2=O)cc1` show?
-5.05

What growth inhibition value was documented for this compound, `COc1ccc(-c2c(-c3ccccc3)c(-c3ccccc3)nn2-c2ccccc2)cc1` ?
34.8

Value lookup for growth inhibition; key = `CCOC(=O)CCCCC(N)=O`
-15.7

Quick one: growth inhibition for `CN(C)CCCc1c2ccccc2nc2ccc(Cl)cc12` ?
-10

Return reported growth inhibition; argument: `N#CCCN(C(=O)COc1ccc(Cl)cc1Cl)C1CCCCC1`
73

What does the record list as growth inhibition for `O=[N+]([O-])c1ccccc1C(Nc1nncs1)Nc1nncs1` ?
41.5

Which growth inhibition value is on record for `Cn1ccccc1=O` ?
-8.55

Which value of growth inhibition has been reported for `COc1cc(OC)c(C(C)=O)cc1OC` in the records?
-3.15

Quick one: growth inhibition for `CC[N+](CC)(CC)Cc1cc2ccccc2n1C(=O)OC` ?
-25.8

Using the record for `COc1ccc(OC)c(/C=C/c2cnnc3ccccc23)c1` , report its growth inhibition.
19.2

I am curious: what growth inhibition value has been reported for CCOC(=O)CCC(NC(=O)c1ccc(Nc2cnc3cc(C(F)(F)F)ccc3n2)cc1)C(=O)OCC (stereo unspecified) ?
-5.85

Could you tell me which growth inhibition is on file for `CSc1ncc2c(C#N)c3sc4ccccc4n3c(=O)c2n1` ?
32.4

Could you share which growth inhibition value was measured for COC(=O)C1c2ccccc2CC(=O)N1N (stereo unspecified) ?
-20.6

So what does the record say about growth inhibition for `C=C=CON1CCCCC1` ?
-24.9

# input compound: CC1=C(CCC(C)N)C(C)(C)CCC1 (stereo unspecified) ; wanted: its growth inhibition
28

Item S=C(Nc1ccccc1)NC1SNC(=Nc2ccccc2)N1c1ccccc1 (stereo unspecified) has what recorded growth inhibition?
98.8

Value lookup for growth inhibition; key = CC(NC(=O)NC(C)(C)C)c1ccccc1 (stereo unspecified)
-5.05

Could you tell me which growth inhibition is on file for `Cc1ccncc1S(=O)(=O)O` ?
2.3

Can you look up the measured growth inhibition of `Cc1ccc(S(=O)(=O)Cc2c(C)cc(C)cc2C)cc1` for me?
-2.25

So what does the record say about growth inhibition for `C=CC[n+]1cccc(Oc2ccc([N+](=O)[O-])cc2[N+](=O)[O-])c1` ?
63.5

What value of growth inhibition has been recorded for this entry: O=C(O)CCC(NC(=O)c1ccc(Nc2nc3ccccc3nc2C(=O)O)cc1)C(=O)O (stereo unspecified)
-6.15

What value of growth inhibition has been reported for the following compound? `CCCC(=O)Nc1ccc2c(ccn2COC)c1`
-2.05
